Entries and their AC50 values follow.
Biological target: D(3) dopamine receptor (Homo sapiens)
Sequence (P35462 whole entry): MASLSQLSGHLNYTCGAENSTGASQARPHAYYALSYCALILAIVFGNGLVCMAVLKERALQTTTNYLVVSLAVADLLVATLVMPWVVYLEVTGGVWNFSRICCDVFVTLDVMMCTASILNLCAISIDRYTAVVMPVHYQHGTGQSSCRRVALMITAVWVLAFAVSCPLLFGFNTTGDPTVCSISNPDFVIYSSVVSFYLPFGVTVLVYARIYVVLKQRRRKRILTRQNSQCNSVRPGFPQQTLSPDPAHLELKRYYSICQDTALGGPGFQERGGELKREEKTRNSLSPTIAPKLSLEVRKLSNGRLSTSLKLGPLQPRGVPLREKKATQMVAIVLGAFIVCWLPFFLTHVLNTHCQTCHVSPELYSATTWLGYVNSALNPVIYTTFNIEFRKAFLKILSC

CC(C(=O)O)c1ccc2c(c1)[nH]c1ccc(Cl)cc12 (centres undefined)
> 30 µM
CN1CCN(C2=Nc3ccccc3Oc3ccc(Cl)cc32)CC1
0.032 µM
CC(C)(C)C(=O)OCC(=O)[C@H]1CC[C@H]2[C@@H]3CCC4=CC(=O)CC[C@]4(C)[C@H]3CC[C@]12C [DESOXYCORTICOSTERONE PIVALATE]
> 30 µM
C[C@]12CC[C@@H]3c4ccc(O)cc4C[C@@H](CCCCCCCCC[S+]([O-])CCCC(F)(F)C(F)(F)F)[C@H]3[C@@H]1CC[C@@H]2O (some centres undefined)
> 30 µM
O=C1C(CC[S+]([O-])c2ccccc2)C(=O)N(c2ccccc2)N1c1ccccc1 (centres undefined)
> 30 µM

**Query** Identify measured AC50 associated with CN1CCC(=C2c3ccccc3CCc3cccnc32)CC1
**Result** > 10 µM

**Query** Provide one value: measured AC50 of O=C1CCc2cc(OCCCCc3nnnn3C3CCCCC3)ccc2N1
**Result** > 30 µM

**Query** Determine its reported AC50: Oc1ccc2c(c1)CC[C@H](c1ccccc1)[C@@H]2c1ccc(OCCN2CCCC2)cc1
**Result** 2.2 µM

**Query** For the molecule CCCCC1C(=O)N(c2ccccc2)N(c2ccccc2)C1=O , report AC50.
**Result** > 30 µM

**Query** Give the reported AC50 for this molecule. CCCCCC(=O)O[C@]1(C(C)=O)CC[C@H]2[C@@H]3CCC4=CC(=O)CC[C@]4(C)[C@H]3CC[C@@]21C [HYDROXYPROGESTERONE CAPROATE]
**Result** > 30 µM

###

Observed AC50 values for D(3) dopamine receptor (Homo sapiens, UniProt P35462) are listed in what follows.

Here are 4 compounds together with their reported answers.
CCC(=O)O[C@]1(C(=O)SCF)[C@H](C)C[C@H]2[C@@H]3C[C@H](F)C4=CC(=O)C=C[C@]4(C)[C@@]3(F)[C@@H](O)C[C@@]21C [FLUTICASONE PROPIONATE]
> 30 µM
Nc1c2ccccc2nc2ccccc12
> 30 µM
Cc1ccccc1C(=O)Nc1ccc(C(=O)N2CCCC(N(C)C)c3ccccc32)cc1 (centres undefined)
> 30 µM
CCOC(=O)N1CSC[C@H]1C(=O)O
> 30 µM

**Query** Indicate the recorded AC50 value for this compound: CCN(CCCc1ccccc1)CCCc1ccccc1
**Result** 1.96 µM

**Query** Return the recorded AC50 value; entry: CN1CCCCC1CCN1c2ccccc2Sc2ccc([S+](C)[O-])cc21 (centres undefined)
**Result** 0.0197 µM

**Query** Item CC(C)C[C@H](NC(=O)CNC(=O)c1cc(Cl)ccc1Cl)B(O)O : provide AC50
**Result** > 30 µM

**Query** Look up AC50 of CCC(=O)O[C@]1(C(=O)CCl)[C@@H](C)C[C@H]2[C@@H]3C[C@H](F)C4=CC(=O)C=C[C@]4(C)[C@@]3(F)[C@@H](O)C[C@@]21C [HALOBETASOL PROPIONATE] and report it.
**Result** > 30 µM

**Query** Please look at this compound and report its AC50: CN(CC1(C)CCCO1)S(=O)(=O)c1ccc(Cl)c(S(N)(=O)=O)c1 (centres undefined) [MEFRUSIDE]
**Result** > 30 µM

**Query** Complete the entry with AC50 for CC(=O)O[C@]1(C(C)=O)CC[C@H]2[C@@H]3C=C(C)C4=CC(=O)CC[C@@H]4[C@H]3CC[C@@]21C [NOMEGESTROL ACETATE]
**Result** > 30 µM

**Query** Let me know recorded AC50 for O=C(O)c1cc(/N=N/c2ccc(O)c(C(=O)O)c2)ccc1O , thanks.
**Result** > 30 µM

**Query** Using known records, supply AC50 for CN1C(C(=O)Nc2ccccn2)=C(O)c2ccccc2S1(=O)=O
**Result** > 30 µM

**Query** Tell us which AC50 value is on record for C=C1CC[C@H](O)C/C1=C/C=C1\CCC[C@]2(C)[C@@H]([C@H](C)/C=C/[C@H](C)C(C)C)CC[C@@H]12
**Result** > 30 µM

**Query** Dear colleague, please send me the reported AC50 for CN1C(=O)/C(=N\NC(N)=S)c2ccccc21 when you can.
**Result** > 30 µM

###

Target: Muscarinic acetylcholine receptor M1 (Homo sapiens, UniProt P11229); also: assay procedure not described here
Sequence (P11229 whole entry): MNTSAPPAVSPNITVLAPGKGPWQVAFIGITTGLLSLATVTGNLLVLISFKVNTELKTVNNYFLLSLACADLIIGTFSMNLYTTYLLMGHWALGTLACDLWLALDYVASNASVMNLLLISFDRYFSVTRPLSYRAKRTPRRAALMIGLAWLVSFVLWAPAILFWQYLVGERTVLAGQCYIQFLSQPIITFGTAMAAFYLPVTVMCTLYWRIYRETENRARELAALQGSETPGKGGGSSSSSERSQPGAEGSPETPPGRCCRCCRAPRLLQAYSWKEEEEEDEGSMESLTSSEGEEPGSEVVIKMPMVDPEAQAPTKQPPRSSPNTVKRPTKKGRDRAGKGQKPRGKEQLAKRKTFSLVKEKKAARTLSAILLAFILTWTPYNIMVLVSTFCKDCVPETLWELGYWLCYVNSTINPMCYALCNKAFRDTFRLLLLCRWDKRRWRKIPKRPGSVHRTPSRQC
Type: functional
Measure name: AC50

Please review the entries below; each comes with its answer.
O=[N+]([O-])c1ccc(O)c2ncccc12
8.5 µM
CN(C)CCc1c[nH]c2ccc(Cn3cncn3)cc12
> 30 µM
CC(C)c1nc(N(C)S(C)(=O)=O)nc(-c2ccc(F)cc2)c1/C=C/[C@@H](O)C[C@@H](O)CC(=O)O
> 30 µM
C/N=C(\NC)NCc1ccccc1
> 30 µM
CC(=O)[C@@]1(O)CC[C@H]2[C@@H]3C=C(Cl)C4=CC(=O)[C@@H]5C[C@@H]5[C@]4(C)[C@H]3CC[C@@]21C
> 10 µM

**Query** // fetch AC50 given entry C[C@@H](NCCCc1cccc(C(F)(F)F)c1)c1cccc2ccccc12
**Result** 17 µM

**Query** Specify measured AC50 for COc1ccc(CC2c3cc(OC)c(OC)cc3CC[N+]2(C)CCC(=O)OCCCCCOC(=O)CC[N+]2(C)CCc3cc(OC)c(OC)cc3C2Cc2ccc(OC)c(OC)c2)cc1OC (stereo not drawn) .
**Result** > 30 µM

**Query** Hello, please tell me recorded AC50 for this one: N[C@@H](CC(=O)N1CCn2c(nnc2C(F)(F)F)C1)Cc1cc(F)c(F)cc1F
**Result** > 30 µM

**Query** Tell us which AC50 value is on record for CCC(C)C1(CC)C(=O)NC(=O)NC1=O (stereo not drawn)
**Result** > 30 µM

###

AC50 by entry:
Target: D(1A) dopamine receptor (Homo sapiens, UniProt P21728); also: assay procedure not described here
Sequence (P21728 whole entry): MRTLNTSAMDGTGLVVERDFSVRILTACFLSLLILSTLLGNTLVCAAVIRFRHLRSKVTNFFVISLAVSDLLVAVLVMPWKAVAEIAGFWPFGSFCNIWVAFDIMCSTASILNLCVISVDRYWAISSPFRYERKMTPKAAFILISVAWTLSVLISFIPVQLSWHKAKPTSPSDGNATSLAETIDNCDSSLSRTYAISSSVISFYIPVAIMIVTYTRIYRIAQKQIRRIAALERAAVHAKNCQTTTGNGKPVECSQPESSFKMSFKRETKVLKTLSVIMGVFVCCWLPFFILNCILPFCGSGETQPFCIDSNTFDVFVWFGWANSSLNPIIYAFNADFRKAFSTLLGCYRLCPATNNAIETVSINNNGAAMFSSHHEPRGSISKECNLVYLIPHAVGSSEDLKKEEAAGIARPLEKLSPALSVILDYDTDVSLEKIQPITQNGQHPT
Format: functional, cell-based

C[C@H]1c2cccc(O)c2C(=O)C2=C(O)[C@]3(O)C(=O)C(C(N)=O)=C(O)[C@@H](N(C)C)[C@@H]3[C@@H](O)[C@@H]21 [DOXYCYCLINE]
> 10 µM
CNC1=Nc2ccc(Cl)cc2C(c2ccccc2)=[N+]([O-])C1 [CHLORDIAZEPOXIDE]
> 30 µM
CC(=O)O[C@H](CC(=O)[O-])C[N+](C)(C)C [ACETYLCARNITINE]
> 30 µM

**Query** Report measured AC50; entry is CCCCCCCCCCCCCCCCCCCCCC(=O)Nc1ccn([C@@H]2O[C@H](CO)[C@@H](O)[C@@H]2O)c(=O)n1 [ENOCITABINE]
**Result** > 30 µM

###

So I've got AC50 readings for Growth hormone secretagogue receptor type 1 (Homo sapiens, UniProt Q92847), take a look.

Use these answered entries as a reference point.
CCC1(c2ccccc2)CCC(=O)NC1=O (centres undefined) [GLUTETHIMIDE]
> 10 µM
Oc1ccc2c(c1)[C@@]13CCCC[C@@]1(O)[C@@H](C2)N(CC1CCC1)CC3 [BUTORPHANOL]
> 30 µM
C=CCNc1nc(NCC=C)nc(N2CCN(C(c3ccc(F)cc3)c3ccc(F)cc3)CC2)n1 [ALMITRINE]
> 30 µM

Here is the next item to consider.
**Query** Enter AC50 (test system Growth hormone secretagogue receptor type 1 (Homo sapiens, UniProt Q92847)) for CCCCC(=O)O[C@]1(C(=O)CO)[C@@H](C)C[C@H]2[C@@H]3CCC4=CC(=O)C=C[C@]4(C)[C@@]3(F)[C@@H](O)C[C@@]21C [BETAMETHASONE VALERATE]; also: assay procedure not described here
**Result** > 30 µM

###

Target: Voltage-gated inwardly rectifying potassium channel KCNH2 (Homo sapiens); also: assay procedure not described here
Sequence (Q12809 whole entry): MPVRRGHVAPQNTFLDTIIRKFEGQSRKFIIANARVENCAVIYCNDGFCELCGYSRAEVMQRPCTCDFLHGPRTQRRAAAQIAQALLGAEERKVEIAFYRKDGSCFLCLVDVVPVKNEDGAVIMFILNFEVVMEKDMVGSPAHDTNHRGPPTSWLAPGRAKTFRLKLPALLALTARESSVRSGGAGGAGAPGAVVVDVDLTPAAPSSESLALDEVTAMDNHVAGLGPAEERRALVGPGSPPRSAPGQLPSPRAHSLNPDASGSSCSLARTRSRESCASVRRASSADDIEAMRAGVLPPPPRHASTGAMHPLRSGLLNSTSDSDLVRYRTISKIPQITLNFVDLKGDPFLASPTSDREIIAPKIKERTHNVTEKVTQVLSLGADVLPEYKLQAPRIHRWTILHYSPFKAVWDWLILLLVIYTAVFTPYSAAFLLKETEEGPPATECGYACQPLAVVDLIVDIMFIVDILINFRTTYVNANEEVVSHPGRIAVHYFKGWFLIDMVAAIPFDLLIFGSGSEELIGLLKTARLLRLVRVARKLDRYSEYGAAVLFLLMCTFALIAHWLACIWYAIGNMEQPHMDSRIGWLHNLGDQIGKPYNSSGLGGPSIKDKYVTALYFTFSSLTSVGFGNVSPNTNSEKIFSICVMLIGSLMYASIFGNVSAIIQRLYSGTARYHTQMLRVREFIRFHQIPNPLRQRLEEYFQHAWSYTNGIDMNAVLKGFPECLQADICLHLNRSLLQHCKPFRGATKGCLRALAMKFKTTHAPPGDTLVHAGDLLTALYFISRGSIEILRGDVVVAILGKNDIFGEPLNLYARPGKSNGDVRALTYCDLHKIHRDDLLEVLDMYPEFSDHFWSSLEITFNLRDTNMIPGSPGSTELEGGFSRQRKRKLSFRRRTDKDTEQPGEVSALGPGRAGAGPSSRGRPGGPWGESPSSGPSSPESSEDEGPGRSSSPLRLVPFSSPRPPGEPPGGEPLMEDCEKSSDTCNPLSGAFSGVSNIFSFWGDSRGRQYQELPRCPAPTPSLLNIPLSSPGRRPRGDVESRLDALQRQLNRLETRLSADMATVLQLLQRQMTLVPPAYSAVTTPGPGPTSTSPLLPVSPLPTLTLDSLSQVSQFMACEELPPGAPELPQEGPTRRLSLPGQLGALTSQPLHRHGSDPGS
Type: functional
Measure name: AC50

Here are 3 compounds together with their reported answers.
CCN(CC)C(=O)Nc1ccc(OCC(O)CNC(C)(C)C)c(C(C)=O)c1 (centres undefined) [CELIPROLOL]
17 µM
CCOC(=O)C1=C(C)NC(C)=C(C(=O)OC)C1c1cccc([N+](=O)[O-])c1 (centres undefined) [NITRENDIPINE]
> 30 µM
CC(N)C(O)c1ccccc1 (centres undefined) [PHENYLPROPANOLAMINE]
> 30 µM

Moving on to another compound below.
**Query** State its AC50: [H]/N=C(/N)N/C(=N/[H])NCCc1ccccc1 [PHENFORMIN]
**Result** > 30 µM

###

Molecular target: Alpha-1A adrenergic receptor (Homo sapiens); also: assay procedure not described here
Sequence (P35348 whole entry): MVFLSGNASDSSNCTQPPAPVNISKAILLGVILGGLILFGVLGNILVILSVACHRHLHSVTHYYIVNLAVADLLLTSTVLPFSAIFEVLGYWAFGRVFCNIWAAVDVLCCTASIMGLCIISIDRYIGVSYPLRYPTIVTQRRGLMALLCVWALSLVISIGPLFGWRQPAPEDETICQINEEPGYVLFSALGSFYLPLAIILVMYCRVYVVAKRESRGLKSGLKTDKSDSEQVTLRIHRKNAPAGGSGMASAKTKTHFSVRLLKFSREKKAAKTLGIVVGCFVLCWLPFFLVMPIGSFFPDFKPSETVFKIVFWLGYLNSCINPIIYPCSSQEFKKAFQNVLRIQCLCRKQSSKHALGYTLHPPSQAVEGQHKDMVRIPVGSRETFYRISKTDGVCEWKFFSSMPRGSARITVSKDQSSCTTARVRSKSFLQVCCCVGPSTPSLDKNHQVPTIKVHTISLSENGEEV
Here, each record is paired with measured AC50 data.

Sample answers from the record:
O=C1CN=C(c2ccccc2)c2cc([N+](=O)[O-])ccc2N1
> 30 µM
CCOC(=O)C1=C(C)NC(C)=C(C(=O)OC)C1c1cccc([N+](=O)[O-])c1 (configuration not stated)
> 10 µM

**Query** Provide Alpha-1A adrenergic receptor (Homo sapiens) AC50 reading for CCN1CCCC1CNC(=O)c1cc(S(=O)(=O)CC)c(N)cc1OC (configuration not stated) [AMISULPRIDE] .
**Result** > 30 µM

**Query** For Alpha-1A adrenergic receptor (Homo sapiens), give AC50 of the listed compound: CCOC(=O)c1cncn1[C@H](C)c1ccccc1 [ETOMIDATE]
**Result** > 10 µM

**Query** Please tell me the measured AC50 for O=C1C(CC[S+]([O-])c2ccccc2)C(=O)N(c2ccccc2)N1c1ccccc1 (configuration not stated) ; system: Alpha-1A adrenergic receptor (Homo sapiens). Also: assay procedure not described here.
**Result** > 10 µM

Taken from ChEMBL document CHEMBL5291721.
